system: HCV replicon; format: cell-based
Experimental endpoint: IC50

Incoming: Query (compound): CCOc1ccc2c(c1)c(C#N)c(-c1ccc(NC(=O)OC(C)C3CC3)cc1)n2C1CCC1 (stereo not shown) [Compound 1296] ; field requested: IC50
Outgoing: 0.5 to 2 µM

Incoming: Query (compound): `CCCCOC(=O)Nc1ccc(-c2c(C#N)c3ccc(O)cc3n2CC)cc1` ; field requested: IC50
Outgoing: < 0.5 µM

Incoming: Query (compound): `CCN1CCN(c2ccc(-c3c(C#N)c4ccc(OC)cc4n3CC)cc2)S1(=O)=O` ; field requested: IC50
Outgoing: 0.5 to 2 µM

Incoming: Query (compound): `CCCS(=O)(=O)Nc1ccc(-c2c(C#N)c3ccc(OC)cc3n2CC)cc1C` ; field requested: IC50
Outgoing: 0.5 to 2 µM

Incoming: Query (compound): `CCS(=O)(=O)Nc1ccc(-c2c(C#N)c3ccc(OC)cc3n2COC)cc1` ; field requested: IC50
Outgoing: 0.5 to 2 µM

Incoming: Query (compound): CCCS(=O)(=O)Nc1ccc(-c2c(C#N)c3ccc(OCC)cc3n2C2CCC2)cc1 [Compound 932] ; field requested: IC50
Outgoing: < 0.5 µM

Incoming: Query (compound): `CCOc1ccc2c(C#N)c(-c3ccc(NC(=O)NC(C)C)cc3)n(CC3CCC3)c2c1` ; field requested: IC50
Outgoing: < 0.5 µM

Incoming: Query (compound): `Cn1c(-c2ccc(N3CCCS3(=O)=O)cc2)c(C#N)c2ccc(OC(F)(F)F)cc21` ; field requested: IC50
Outgoing: 0.5 to 2 µM

Incoming: Query (compound): `CCOc1ccc2c(C#N)c(-c3ccc(NC(=O)OC(C)C)cc3)n(C(C)C)c2c1` ; field requested: IC50
Outgoing: < 0.5 µM

Incoming: Query (compound): `CCn1c(-c2ccc(NS(=O)(=O)C3CC3)cc2)c(C#N)c2ccc(OCCCN3CCOCC3)cc21` ; field requested: IC50
Outgoing: 0.5 to 2 µM

Incoming: Query (compound): `N#Cc1cn(CC2CC2)c2cc(OC(F)F)ccc12` ; field requested: IC50
Outgoing: 0.5 to 2 µM

Incoming: Query (compound): `CCCOC(=O)Nc1ccc(-c2c(C#N)c3ccc(OCC)cc3n2CC2CC2)cc1` ; field requested: IC50
Outgoing: < 0.5 µM

Incoming: Query (compound): CCOc1ccc2c(C#N)c(-c3ccc(NC(=O)OCc4ccccc4)cc3)n(CC3CC3)c2c1 [Compound 1155] ; field requested: IC50
Outgoing: 0.5 to 2 µM

Incoming: Query (compound): `CCn1c(-c2ccc(N3CCCS3(=O)=O)cc2)c(C#N)c2ccc(Oc3cnccn3)cc21` ; field requested: IC50
Outgoing: 0.5 to 2 µM

Incoming: Query (compound): `COc1ccc2c(C#N)c(-c3ccc(NS(=O)(=O)C(C)C)cc3)n(CC3CCCC3)c2c1` ; field requested: IC50
Outgoing: 0.5 to 2 µM

Incoming: Query (compound): `CC1CCN(CCOc2ccc3c(C#N)c(-c4ccc(NC(=O)OC(C)C)cc4)n(C4CCC4)c3c2)CC1` ; field requested: IC50
Outgoing: < 0.5 µM

====

test system: HCV replicon; type: cell-based
Experimental endpoint: IC50

Incoming: Query (compound): `CCOC(=O)Nc1ccc(-c2c(C#N)c3ccc(OC)cc3n2C2CCC2)cc1` ; field requested: IC50
Outgoing: 0.5 to 2 µM

Incoming: Query (compound): `CCCOc1ccc2c(C#N)c(-c3ccc(NC(=O)OCC)cc3)n(C(C)C)c2c1` ; field requested: IC50
Outgoing: < 0.5 µM

Incoming: Query (compound): `C=CCNC(=O)Nc1ccc(-c2c(C#N)c3cc4c(cc3n2C2CCC2)OCO4)cc1` ; field requested: IC50
Outgoing: 0.5 to 2 µM

Incoming: Query (compound): `CCOCCOC(=O)Nc1ccc(-c2c(C#N)c3ccc(OCC)cc3n2C2CCC2)cc1` ; field requested: IC50
Outgoing: < 0.5 µM

Incoming: Query (compound): `CCCS(=O)(=O)Nc1ccc(-c2c(C#N)c3cc(OCC)ccc3n2C2CCC2)cc1` ; field requested: IC50
Outgoing: 0.5 to 2 µM

Incoming: Query (compound): `CCCn1c(-c2ccc(NC(=O)OCCF)cc2)c(C#N)c2ccc(OCC)cc21` ; field requested: IC50
Outgoing: 0.5 to 2 µM

Incoming: Query (compound): CC(OC(=O)Nc1ccc(-c2c(C#N)c3ccc(OCC4CCCO4)cc3n2C2CCC2)cc1)C1CC1 (stereo not shown) ; field requested: IC50
Outgoing: < 0.5 µM

Incoming: Query (compound): `CCN(C)CCOc1ccc2c(C#N)c(-c3ccc(NC(=O)OC(C)C)cc3)n(C3CCC3)c2c1` ; field requested: IC50
Outgoing: < 0.5 µM

Incoming: Query (compound): `CCCNC(=O)Nc1ccc(-c2c(C#N)c3ccc(OCC)cc3n2C(C)C)cc1` ; field requested: IC50
Outgoing: 0.5 to 2 µM

Incoming: Query (compound): `CCOc1ccc2c(c1)c(C#N)c(-c1ccc(NC(=O)NCCc3ccccc3)cc1)n2C1CCC1` ; field requested: IC50
Outgoing: < 0.5 µM

Incoming: Query (compound): N#Cc1c(-c2ccc(NC(=O)OCC3CCC3)cc2)n(C2CCC2)c2cc(OCC3CCCO3)ccc12 (stereo not shown) ; field requested: IC50
Outgoing: < 0.5 µM

Incoming: Query (compound): `CCNC(=O)Nc1ccc(-c2c(C#N)c3ccc(OCC)cc3n2CC2CC2)cc1` ; field requested: IC50
Outgoing: < 0.5 µM

Incoming: Query (compound): `CCOc1ccc2c(C#N)c(-c3ccc(NC(=O)Cc4ccccc4)cc3)n(CC)c2c1` ; field requested: IC50
Outgoing: 0.5 to 2 µM

Incoming: Query (compound): `CC(C)OC(=O)Nc1ccc(-c2c(C#N)c3ccc(OCCN4CCCC4)cc3n2C2CCC2)cc1` ; field requested: IC50
Outgoing: < 0.5 µM

Incoming: Query (compound): `CCOC(=O)Nc1ccc(-c2c(C#N)c3ccc(OC)cc3n2CC)cc1C` ; field requested: IC50
Outgoing: 0.5 to 2 µM

Incoming: Query (compound): `CCCOc1ccc2c(C#N)c(-c3ccc(NC(=O)OCC(C)(C)C)cc3)n(C(C)C)c2c1` ; field requested: IC50
Outgoing: < 0.5 µM

Source of measurements: patent US7973069B2
